# TEST DESCRIPTION: Plasma protein binding, equilibrium dialysis, human plasma
# Type: in vitro ADME
# RECORDED CONDITIONS: undiluted plasma, human plasma protein binding, read-out: PPB (hu) (converted)
MEASURE NAME: fraction unbound at 4 h, 100 µM

Some solved cases for reference:
{"columns": ["COMPOUND", "MEASURE NAME", "RESULT"],
 "data": [
  ["O=P(O)(O)CP(=O)(O)OC[C@H]1O[C@@H](n2ccc3c(-c4ccc5ncccc5c4)ncnc32)[C@H](O)[C@@H]1O [4A.19]", "fraction unbound at 4 h, 100 µM", 0.048],
  ["O=P(O)(O)CP(=O)(O)OC[C@H]1O[C@@H](n2ccc3c(-c4ccsc4)ncnc32)[C@H](O)[C@@H]1O [4A.4]", "fraction unbound at 4 h, 100 µM", 0.125],
  ["O=P(O)(O)CP(=O)(O)OC[C@H]1O[C@@H](n2ccc3c(-c4cccc5ccoc45)ncnc32)[C@H](O)[C@@H]1O [4A.15]", "fraction unbound at 4 h, 100 µM", 0.036],
  ["O=P(O)(O)CP(=O)(O)OC[C@H]1O[C@@H](n2ccc3c(-c4ccc5cnccc5c4)ncnc32)[C@H](O)[C@@H]1O [4A.21]", "fraction unbound at 4 h, 100 µM", 0.054],
  ["Nc1nc(-c2ccc3ccccc3c2)c2ccn([C@@H]3O[C@H](COP(=O)(O)CP(=O)(O)O)[C@@H](O)[C@H]3O)c2n1 [11C.7]", "fraction unbound at 4 h, 100 µM", 0.037],
  ["O=P(O)(O)CP(=O)(O)OC[C@H]1O[C@@H](n2cnc3c(-c4cccc5c4CCCC5)ncnc32)[C@H](O)[C@@H]1O [31A.12]", "fraction unbound at 4 h, 100 µM", 0.084],
  ["O=P(O)(O)CP(=O)(O)OC[C@H]1O[C@@H](n2ccc3c(-c4ccc5cncnc5c4)ncnc32)[C@H](O)[C@@H]1O [4A.22]", "fraction unbound at 4 h, 100 µM", 0.113],
  ["Nc1nc(-c2cccc3c2CCCC3)c2ccn([C@@H]3O[C@H](COP(=O)(O)CP(=O)(O)O)[C@@H](O)[C@H]3O)c2n1 [11C.12]", "fraction unbound at 4 h, 100 µM", 0.157]
]}

I. O=P(O)(O)CP(=O)(O)OC[C@H]1O[C@@H](n2ccc3c(-c4cccc5c4CCCC5)nc(Cl)nc32)[C@H](O)[C@@H]1O [7B.12]
II. O=P(O)(O)CP(=O)(O)OC[C@H]1O[C@@H](n2ccc3c(-c4ccco4)nc(F)nc32)[C@H](O)[C@@H]1O [14D.1]
input: Hey, which is lower on measured fraction unbound at 4 h, 100 µM, I or II ? Write the label of whichever entry you select.
output: I
(I: 0.005, II: 0.045)

All values here come from paper PMC12797170.
